# methodDescription: AUClast in Swiss mouse lung at 10 mg/kg, iv administered as single bolus dose and measured upto 24 hrs by LC-MS/MS analysis
# Type: ADME, organism-based
endpointLabel: AUC(0-t) at 24 h (ng·h/mL)

CC[C@H](C)[C@@H](NC(=O)[C@@H](NC(=O)[C@H](CCC(=O)O)NC(=O)[C@H](Cc1ccccc1)NC(=O)[C@@H](CCN)NC(=O)[C@H](CCN)NC(=O)[C@H](CO)NC(=O)[C@@H](Cc1c[nH]c2ccccc12)NC(=O)[C@@H](CO)NC(=O)CNC(=O)[C@@H](CCN)NC(=O)[C@H](NC(=O)[C@H](C)N)C(C)C)C(C)C)C(=O)N[C@@H](C)C(=O)O	12100
